- Method Summary: Thermo Scientific Acclaim RSLC 120 C18, 100 × 2.1 mm, 2.2 µm, 30 °C; A: 90% water + 10% methanol + 0.01% formic acid + 5 mM ammonium formate; B: methanol + 0.01% formic acid + 5 mM ammonium formate; gradient (min/%B) 0.1/1 3/39 14/99.9 16/99.9
- Condition Summary: stereoisomer not certain
Metric Name: LC retention time (min)

- Compound: "COC1CC(OC2C(C)OC(OC3C(C)=CCC4CC(CC5(C=CC(C)C(C(C)C)O5)O4)OC(=O)C4C=C(C)C(O)C5OCC(=CC=CC3C)C45O)CC2OC)OC(C)C1O (stereo not drawn)"
  Metric Name: "LC retention time"
  Result Units: "min"
  Recorded Result: 13.4
- Compound: "CCCCOC(=O)N(C)SN(C)C(=O)Oc1cccc2c1OC(C)(C)C2"
  Metric Name: "LC retention time"
  Result Units: "min"
  Recorded Result: 12.1
- Compound: "CN(C)C(CSS(=O)(=O)c1ccccc1)CSS(=O)(=O)c1ccccc1"
  Metric Name: "LC retention time"
  Result Units: "min"
  Recorded Result: 9.6
- Compound: "CC(N)Cc1c[nH]c2ccccc12 (stereo not drawn)"
  Metric Name: "LC retention time"
  Result Units: "min"
  Recorded Result: 4.44
- Compound: "CC(C)C1(NC(=O)C2CC3c4cccc5[nH]cc(c45)CC3N(C)C2)OC2(O)C3CCCN3C(=O)C(Cc3ccccc3)N2C1=O (stereo not drawn)"
  Metric Name: "LC retention time"
  Result Units: "min"
  Recorded Result: 8.17
- Compound: "CCOc1ccc(S(=O)(=O)O)c2cccnc12"
  Metric Name: "LC retention time"
  Result Units: "min"
  Recorded Result: 3.56
- Compound: "Cc1ccc(N(CC2=NCCN2)c2cccc(O)c2)cc1"
  Metric Name: "LC retention time"
  Result Units: "min"
  Recorded Result: 5.86
- Compound: "CNCC(C)CN1c2ccccc2Sc2ccc(OC)cc21 (stereo not drawn)"
  Metric Name: "LC retention time"
  Result Units: "min"
  Recorded Result: 8.33
